# LD50 at 72 h listing for each entry below
- procedure_text: Acute toxicity in the mouse (LD50)
- stated_conditions: in vivo, po; orally; male CD1 mouse; 3 days observation
Report only the number, with the unit mg/kg understood.

Summary for this compound, CC(C)NCC(O)COc1ccccc1[C@H]1C[C@H]2CC[C@@H]1C2 (relative stereo) : LD50 at 72 h is 675

// LD50 at 72 h value for CC(C)NCC(O)COc1ccccc1[C@@H]1C[C@H]2CC[C@@H]1C2 (relative stereo) : 800

----------
- procedure_text: Acute toxicity in the mouse (LD50)
- stated_conditions: in vivo, iv; intravenously; male CD1 mouse; 3 days observation
measured_metric: LD50 at 72 h (mg/kg)
Supply the numeric figure in mg/kg, leaving out any unit text.

# compound, unit_of_measurement, LD50 at 72 h
data = [
    ("CC(C)NCC(O)COc1ccccc1[C@@H]1C[C@H]2CC[C@@H]1C2 (relative stereo) [Example 1]", "mg/kg", 60),
]

Turning to the following compound.
# LD50 at 72 h (compound: CC(C)NCC(O)COc1ccccc1[C@H]1C[C@H]2CC[C@@H]1C2 (relative stereo) [Example 2] ) is 62
